- study conditions: in n-pentanol, 293.15 K

>  <sample smiles>
COC(=O)[C@@H](N)CC(C)C.Cl

>  <solubility (mole fraction)>
0.0696

$$$$

---

- study conditions: in n-hexane, 313.15 K
measured parameter: solubility (mole fraction)

>  <sample smiles>
COC(=O)[C@@H](N)CC(C)C.Cl

>  <assay value>
0.000782

$$$$

---

- study conditions: in n-propyl acetate, 288.15 K

>  <sample smiles>
COC(=O)[C@@H](N)CC(C)C.Cl

>  <solubility (mole fraction)>
0.00129

$$$$

---

- study conditions: in ethyl acetate, 313.15 K
measured parameter: solubility (mole fraction)

>  <sample smiles>
COC(=O)[C@@H](N)CC(C)C.Cl

>  <assay value>
0.000729

$$$$
